Target: human recombinant MAO-A (Homo sapiens)
Construct: purchased Sigma-Aldrich
Assay: MAO-Glo MAO-A inhibition assay
Assay type: biochemical
Details: 100 µM, compared to vehicle
Protocol: MAO inhibition assays were performed using a MAO-Glo™ Assay kit (Promega) according to the manufacturer’s instructions. […] After 1 h of incubation, the luminescence was measured with a multimode microplate reader (Synergy HT, BioTek, Winooski, VT, USA) to determine the MAO enzyme activities. Initially, the inhibition potential of all the test compounds was evaluated at a concentration of 100 μM. […]
Would you kindly list inhibition of MAO-A enzyme activity for each of these compounds?
Numbers only, in %.

// each listed compound needs a value for inhibition of MAO-A enzyme activity
1. O=c1oc2cc(O)ccc2c2ccccc12
2. O=c1oc2cc(O)ccc2c2ccc(O)cc12
3. O=c1oc2cc(O)ccc2c2cc(O)c(O)cc12

Response:
[94, 86, 88]

----------
Target: human recombinant MAO-A (Homo sapiens, UniProt P21397)
Sequence (P21397 1-527): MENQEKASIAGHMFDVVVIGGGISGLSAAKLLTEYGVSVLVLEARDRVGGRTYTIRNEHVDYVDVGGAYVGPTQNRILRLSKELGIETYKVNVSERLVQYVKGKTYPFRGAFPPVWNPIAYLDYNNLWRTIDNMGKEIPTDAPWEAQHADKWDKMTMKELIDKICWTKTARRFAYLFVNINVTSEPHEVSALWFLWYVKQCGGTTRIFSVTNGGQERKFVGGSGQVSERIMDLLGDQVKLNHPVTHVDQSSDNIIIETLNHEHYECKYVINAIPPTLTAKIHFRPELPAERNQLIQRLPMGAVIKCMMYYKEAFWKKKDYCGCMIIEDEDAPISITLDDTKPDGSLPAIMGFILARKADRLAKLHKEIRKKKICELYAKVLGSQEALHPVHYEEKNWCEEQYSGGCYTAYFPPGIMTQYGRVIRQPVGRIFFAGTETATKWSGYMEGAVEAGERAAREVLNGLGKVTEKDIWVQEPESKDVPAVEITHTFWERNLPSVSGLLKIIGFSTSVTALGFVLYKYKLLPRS
Test: MAO-A inhibition kinetics (variable substrate, Lineweaver–Burk plot)
Conditions: x-axis intercept of slopes of Lineweaver–Burk plots vs inhibitor concentration
READOUT_LABEL: Ki (µM)
Numbers only, in µM.

Below are worked cases with known answers.
COMPOUND_STRUCTURE	Ki / µM
O=c1oc2cc(O)ccc2c2ccc(O)cc12	10
O=c1oc2cc(O)ccc2c2ccccc12	2.3

Request: Look up Ki for this compound: "O=c1oc2cc(O)ccc2c2cc(O)c(O)cc12"
Response: 44.3

----------
Target: human recombinant MAO-A (Homo sapiens, UniProt P21397)
Sequence (P21397 1-527): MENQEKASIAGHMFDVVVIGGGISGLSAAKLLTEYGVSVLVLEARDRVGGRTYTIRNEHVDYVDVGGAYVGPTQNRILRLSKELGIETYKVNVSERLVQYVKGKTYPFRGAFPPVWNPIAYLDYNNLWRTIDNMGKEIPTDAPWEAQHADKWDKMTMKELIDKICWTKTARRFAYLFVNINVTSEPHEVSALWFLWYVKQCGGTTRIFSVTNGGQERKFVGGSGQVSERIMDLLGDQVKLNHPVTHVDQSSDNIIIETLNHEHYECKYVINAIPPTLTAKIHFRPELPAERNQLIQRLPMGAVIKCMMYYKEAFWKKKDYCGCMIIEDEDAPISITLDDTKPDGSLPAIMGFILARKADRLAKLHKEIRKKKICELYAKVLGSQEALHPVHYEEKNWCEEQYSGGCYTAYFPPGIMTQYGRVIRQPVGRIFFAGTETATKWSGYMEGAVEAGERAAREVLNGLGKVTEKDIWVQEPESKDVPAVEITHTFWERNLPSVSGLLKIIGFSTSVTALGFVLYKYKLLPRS
Assay: MAO-Glo MAO-A inhibition assay
Settings: 0–50 μM range, 160 µM substrate, 37 °C, 1 h; read-out: IC50 for MAO-A inhibitory activity
READOUT_LABEL: pIC50
Answers are plain numbers, as −log10 of the molar value.

Below are worked cases with known answers.
COMPOUND_STRUCTURE	TARGET	pIC50
O=c1oc2cc(O)ccc2c2cc(O)c(O)cc12	human recombinant MAO-A (Homo sapiens, UniProt P21397)	4.53
O=c1oc2cc(O)ccc2c2ccccc12	human recombinant MAO-A (Homo sapiens, UniProt P21397)	6.06

Kindly review the next compound as well.
Request: Look up pIC50 for this compound: "O=c1oc2cc(O)ccc2c2ccc(O)cc12"
Response: 5.23
